- method.notes: Inhibition of human PSEN1/APH1B expressed in MEF cells with Psen1/2 double knockout/Aph1ABC triple knockout by ELISA
- Assay type: cell-based
observed.property: IC50 (nM)
Give just the numeric value; nM need not be written.

Enquiry: I have this compound here, O=S(=O)(c1ccc(Cl)cc1)N1[C@H]2CC[C@H]([C@H](O)C2)[C@H]1c1ccc(C(F)(F)F)cc1 , and I need its recorded IC50.
Return: 110

Enquiry: Next record, please: N#Cc1ccc([C@@H]2[C@@H]3CC[C@@H](CC3=O)N2S(=O)(=O)c2ccc(Cl)cc2)cc1 (racemic)
Return: 234

Enquiry: Check Cc1ccc(S(=O)(=O)N2[C@H]3CC[C@@H]([C@H]2c2ccc(C#N)nc2)[C@@H](O)C3)cc1 (racemic) too.
Return: 158

Enquiry: COc1ccc([C@@H]2[C@@H]3CC[C@@H](C[C@@H]3O)N2S(=O)(=O)c2ccc(Cl)cc2)cn1 (racemic) ?
Return: 62

Enquiry: N#Cc1ccc([C@@H]2[C@@H]3CC[C@@H](C[C@@H]3O)N2S(=O)(=O)c2ccc(Cl)cc2)cn1 ?
Return: 12.9

Enquiry: Okay, and O=C1C[C@@H]2CC[C@H]1[C@@H](c1ccc(F)c(F)c1)N2S(=O)(=O)c1ccc(Cl)s1 (racemic) ?
Return: 1950

----------
Exercise: for every item that follows, state its recorded IC50.
- method.notes: Inhibition of human PSEN1/APH1B expressed in MEF cells with Psen1/2 double knockout/Aph1ABC triple knockout by ELISA
- Format: cell-based
Report as a plain number; the unit µM is understood.

Enquiry: // IC50 lookup, key: O=C1C[C@@H]2CC[C@H]1[C@@H](c1ccc(OC(F)(F)F)cc1)N2S(=O)(=O)c1ccc(Cl)cc1 (racemic)
Return: 0.19

Enquiry: Same read-out for O=S(=O)(N[C@H]1CC[C@@](c2cc(F)ccc2F)(S(=O)(=O)c2ccc(Cl)cc2)CC1)C(F)(F)F ?
Return: 0.00042

Enquiry: And the next one, N#Cc1ccc([C@@H]2[C@@H]3CC[C@@H](C[C@@H]3O)N2S(=O)(=O)c2ccc(Cl)cc2)cn1 (racemic) ?
Return: 0.012

Enquiry: // repeat for O=C1C[C@@H]2CC[C@H]1[C@@H](c1cc(F)ccc1F)N2S(=O)(=O)c1ccc(Cl)cc1 (racemic) and report
Return: 0.426

----------
- method.notes: Free fraction in rat brain homogenate at 5 uM incubated for 5 hrs by HPLC-MS/MS analysis
- Format: ADME, tissue-based
observed.property: fraction unbound at 5 h, 5 µM

Enquiry: Entry O=S(=O)(c1ccc(Cl)cc1)N1[C@H]2CC[C@@H]([C@H]1c1ccc(C(F)(F)F)cc1)[C@@H](O)C2 : reported fraction unbound at 5 h, 5 µM = ?
Return: 0.00115

Enquiry: Ok, now N#Cc1ccc([C@@H]2[C@@H]3CC[C@@H](C[C@@H]3O)N2S(=O)(=O)c2ccc(Cl)cc2)cn1
Return: 0.119

----------
- target.of.assay: Cytochrome P450 2C9 (Homo sapiens)
- Sequence (P11712 whole entry): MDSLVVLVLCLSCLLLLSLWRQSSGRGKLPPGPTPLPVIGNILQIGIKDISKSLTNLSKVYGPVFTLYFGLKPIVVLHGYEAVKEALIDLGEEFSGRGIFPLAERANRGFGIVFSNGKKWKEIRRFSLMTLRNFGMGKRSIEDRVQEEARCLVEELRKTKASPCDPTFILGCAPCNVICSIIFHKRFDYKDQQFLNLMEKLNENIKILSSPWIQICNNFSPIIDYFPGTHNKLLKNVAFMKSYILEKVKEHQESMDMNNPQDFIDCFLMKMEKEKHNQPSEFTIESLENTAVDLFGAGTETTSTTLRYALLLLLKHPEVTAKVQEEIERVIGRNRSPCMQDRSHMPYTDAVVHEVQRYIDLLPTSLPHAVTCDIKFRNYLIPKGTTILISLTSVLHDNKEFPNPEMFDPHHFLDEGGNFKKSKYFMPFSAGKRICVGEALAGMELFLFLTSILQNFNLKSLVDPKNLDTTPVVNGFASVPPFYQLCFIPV
observed.property: IC50

Enquiry: Consider the molecule O=S(=O)(c1ccc(Cl)cc1)N1[C@H]2CC[C@@H]([C@H]1c1ccc(C(F)(F)F)cc1)[C@@H](O)C2 and give its measured IC50.
Return: > 10 µM

----------
- method.notes: AUClast in CD-1 mouse at 30 mg/kg, po measured at 4 hrs post-dose
- Assay type: ADME, organism-based
- experimental.parameters: in vivo
observed.property: AUC(0-t) at 4 h (ng·h/mL)
Numeric answer only, unit ng·h/mL assumed.

Enquiry: Entry O=S(=O)(c1ccc(Cl)cc1)N1[C@H]2CC[C@@H]([C@H]1c1ccc(C(F)(F)F)cc1)[C@@H](O)C2 has what AUC(0-t) at 4 h?
Return: 163
